Molecular target: human LPA1 (Homo sapiens)
Experiment: LPA1 functional antagonist assay (calcium flux)
Settings: CHO cells overexpressing human LPA1; inhibition of calcium flux induced by 10 nM LPA; read-out: hLPA1 IC50
In this section, each of the compounds is paired with its reported IC50.
Please state the figure in nM; there is no need to write the unit.

// known answers, use as guide
{"columns": ["SAMPLE SMILES", "UNITS OF MEASURE", "IC50"],
 "data": [
  ["Cn1nnc(-c2ccc(O[C@H]3CCC[C@H](C(=O)O)C3)cn2)c1CNc1ncnc(C2CC2)n1", "nM", 211],
  ["Cc1nc(-c2nnn(C)c2COc2nccc(C(C)(C)C)n2)ccc1O[C@H]1CCC[C@H](C(=O)O)C1", "nM", 29],
  ["Cn1nnc(-c2ccc(O[C@H]3CCC[C@H](C(=O)O)C3)cn2)c1CNc1nccc(Oc2ccccc2)n1", "nM", 178]
]}

Could you now consider this next compound?
Form field: reported IC50 of Cc1nc(-c2nnn(C)c2Nc2cccc(OCc3ccccc3)n2)ccc1O[C@H]1CCC[C@H](C(=O)O)C1
55

---

Property: IC50; scope: individual molecules
Biological target: human LPA1 (Homo sapiens, UniProt Q92633)
Sequence (Q92633 whole entry): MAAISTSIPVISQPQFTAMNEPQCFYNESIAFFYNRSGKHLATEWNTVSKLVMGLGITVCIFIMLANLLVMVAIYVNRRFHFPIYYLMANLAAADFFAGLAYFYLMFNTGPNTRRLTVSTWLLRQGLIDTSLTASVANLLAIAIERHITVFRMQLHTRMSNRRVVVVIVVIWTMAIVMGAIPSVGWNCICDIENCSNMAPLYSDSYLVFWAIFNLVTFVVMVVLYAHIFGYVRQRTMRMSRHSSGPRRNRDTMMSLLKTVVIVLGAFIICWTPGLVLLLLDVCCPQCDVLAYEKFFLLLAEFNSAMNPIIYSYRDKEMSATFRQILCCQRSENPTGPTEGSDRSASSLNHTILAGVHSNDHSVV
Assay: LPA1 functional antagonist assay (calcium flux)
Settings: CHO cells overexpressing human LPA1; inhibition of calcium flux induced by 10 nM LPA; read-out: hLPA1 IC50
Experimental: The effectiveness of compounds of the present invention as LPA1 inhibitors can be determined in an LPA1 functional antagonist assay as follows: Chinese hamster ovary cells overexpressing human LPA1 were plated overnight (15,000 cells/well) in poly-D-lysine coated 384-well microplates (Greiner bio-one, Cat #781946) in DMEM/F12 medium (Gibco, Cat #11039). […] IC50 values were determined by fitting data to a 4-parameter logistic equation (GraphPad Prism, San Diego Calif.).
Write the value in nM as a bare number.

Some entries whose results are on file:
{"columns": ["MOLECULE", "SYSTEM UNDER TEST", "IC50 / nM"],
 "data": [
  ["Cc1nc(-c2nnn(C)c2CNc2nccc(OC3CC3)n2)c(F)cc1O[C@H]1CCC[C@H](C(=O)O)C1", "human LPA1 (Homo sapiens, UniProt Q92633)", 227],
  ["Cc1nc(-c2nnn(C)c2CNc2cc(-c3ccccc3)ccn2)ccc1O[C@H]1CCC[C@H](C(=O)O)C1 (stereo in doubt)", "human LPA1 (Homo sapiens, UniProt Q92633)", 32]
]}

Tell me the measured IC50 of CCCOCc1ccnc(NCc2c(-c3ccc(O[C@H]4CCC[C@H](C(=O)O)C4)c(C)n3)nnn2C)n1 , please.
42

What do we get for Cc1nc(-c2nnn(C)c2CNc2nccc(OCC(F)(F)F)n2)ccc1O[C@H]1CCC[C@H](C(=O)O)C1 ?
54

Query Cc1nc(-c2nnn(C)c2CNc2nccc(OCCCF)n2)ccc1O[C@H]1CCC[C@H](C(=O)O)C1 next
25

Quick one: Cc1nc(-c2nnn(C)c2CNc2nccc(OC3CC(F)(F)C3)n2)ccc1O[C@H]1CCC[C@H](C(=O)O)C1
50

Moving on to the next molecule: Cc1nc(-c2nnn(C)c2CNc2nccc(OC3CCC3)n2)ccc1O[C@H]1CCC[C@H](C(=O)O)C1
16

// next record CCOCCOc1cc(OCc2c(-c3ccc(O[C@H]4CCC[C@H](C(=O)O)C4)c(C)n3)nnn2C)ncn1
96

Now the same for CCOc1cnnc(OCc2c(-c3ccc(O[C@H]4CCC[C@H](C(=O)O)C4)c(C)n3)nnn2C)c1
147

One more molecule: Cc1nc(-c2nnn(C)c2CNc2nccc(OCC3(C)COC3)n2)ccc1O[C@H]1CCC[C@H](C(=O)O)C1
130

Likewise for Cc1cccc(Oc2ccnc(NCc3c(-c4ccc(O[C@H]5CCC[C@H](C(=O)O)C5)c(C)n4)nnn3C)n2)c1 ?
152

---

Biological target: human LPA1 (Homo sapiens, UniProt Q92633)
Test: LPA1 functional antagonist assay (calcium flux)
Conditions: CHO cells overexpressing human LPA1; inhibition of calcium flux induced by 10 nM LPA; read-out: hLPA1 IC50
Protocol: The effectiveness of compounds of the present invention as LPA1 inhibitors can be determined in an LPA1 functional antagonist assay as follows: Chinese hamster ovary cells overexpressing human LPA1 were plated overnight (15,000 cells/well) in poly-D-lysine coated 384-well microplates (Greiner bio-one, Cat #781946) in DMEM/F12 medium (Gibco, Cat #11039). […] IC50 values were determined by fitting data to a 4-parameter logistic equation (GraphPad Prism, San Diego Calif.).
REPORTED ENDPOINT: IC50 (nM)
Give the number; nM is assumed, so skip it.

Below, 4 molecules whose answers are already recorded.
{"columns": ["MOLECULE", "UNITS OF MEASURE", "IC50"],
 "data": [
  ["Cc1nc(-c2nnn(C)c2CN(C)c2ncnc(C(C)C)n2)ccc1O[C@H]1CCC[C@H](C(=O)O)C1 [Example 328]", "nM", 211],
  ["Cc1nc(-c2nnn(C)c2CNc2nccc(Oc3ccc(F)cc3F)n2)ccc1O[C@H]1CCC[C@H](C(=O)O)C1 [Example 116]", "nM", 14],
  ["Cc1nc(-c2nnn(C)c2CNc2ncc(F)c(C(C)(C)C)n2)ccc1O[C@H]1CCC[C@H](C(=O)O)C1 [Example 144]", "nM", 40],
  ["CCCCc1cccc(Nc2c(-c3ccc(O[C@H]4CCC[C@H](C(=O)O)C4)c(C)n3)nnn2C)n1 [Example 236]", "nM", 10]
]}

Entry Cc1nc(-c2nnn(C)c2CNc2ccnc(OCC(C)(C)C)n2)ccc1O[C@H]1CCC[C@H](C(=O)O)C1 [Example 61] : reported IC50 = ?
233

Try this molecule next: CC(C)c1ccnc(NCc2c(-c3ccc(O[C@H]4CCC[C@H](C(=O)O)C4)c(C#N)n3)nnn2C)n1 [Example 406]
18

Another molecule: Cc1nc(-c2nnn(C)c2CNc2ncnc(C3CCCCC3)n2)ccc1O[C@H]1CCC[C@H](C(=O)O)C1 [Example 185]
288

// repeat for Cc1nc(-c2nnn(C)c2CNc2ncc(F)c(NCCC3CC3)n2)ccc1O[C@H]1CCC[C@H](C(=O)O)C1 [Example 57] and report
21

What do we get for Cc1nc(-c2nnn(C)c2COc2ncnc(OC3CC3)c2C)ccc1O[C@H]1CCC[C@H](C(=O)O)C1 [Example 292] ?
390

Another molecule to look at: CCCc1ccnc(NCc2c(-c3ccc(O[C@H]4CCC[C@H](C(=O)O)C4)c(C)n3)nnn2C)n1 [Example 7]
8
